Biological target: Tyrosine-protein kinase Fgr (Homo sapiens, UniProt P09769)
Sequence (P09769 whole entry): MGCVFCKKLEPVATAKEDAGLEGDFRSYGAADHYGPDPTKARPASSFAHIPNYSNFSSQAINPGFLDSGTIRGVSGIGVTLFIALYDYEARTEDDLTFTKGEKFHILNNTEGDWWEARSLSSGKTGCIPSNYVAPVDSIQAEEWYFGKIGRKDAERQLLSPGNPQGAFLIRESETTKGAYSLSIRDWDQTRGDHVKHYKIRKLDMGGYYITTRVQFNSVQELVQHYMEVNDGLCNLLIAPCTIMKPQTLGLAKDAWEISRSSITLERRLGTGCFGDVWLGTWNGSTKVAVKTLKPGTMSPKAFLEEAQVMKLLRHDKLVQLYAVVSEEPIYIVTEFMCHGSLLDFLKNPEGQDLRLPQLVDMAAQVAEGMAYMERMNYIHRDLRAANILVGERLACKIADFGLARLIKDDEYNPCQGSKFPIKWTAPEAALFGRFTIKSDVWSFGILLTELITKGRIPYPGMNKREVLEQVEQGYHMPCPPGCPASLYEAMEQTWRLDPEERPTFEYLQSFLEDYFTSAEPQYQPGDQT
MEASURED_PROPERTY: pIC50
In plain terms, pIC50 is the concentration in mol/L turned into minus its base-10 logarithm.

Specify reported pIC50 for the molecule shown: Cc1cc(Nc2ncc(Cl)c(Nc3ccccc3S(=O)(=O)C(C)C)n2)c(OC(C)C)cc1C1CCNCC1 5.71

---

Target: Fibroblast growth factor receptor 3 (Homo sapiens, UniProt P22607)
Sequence (P22607 whole entry): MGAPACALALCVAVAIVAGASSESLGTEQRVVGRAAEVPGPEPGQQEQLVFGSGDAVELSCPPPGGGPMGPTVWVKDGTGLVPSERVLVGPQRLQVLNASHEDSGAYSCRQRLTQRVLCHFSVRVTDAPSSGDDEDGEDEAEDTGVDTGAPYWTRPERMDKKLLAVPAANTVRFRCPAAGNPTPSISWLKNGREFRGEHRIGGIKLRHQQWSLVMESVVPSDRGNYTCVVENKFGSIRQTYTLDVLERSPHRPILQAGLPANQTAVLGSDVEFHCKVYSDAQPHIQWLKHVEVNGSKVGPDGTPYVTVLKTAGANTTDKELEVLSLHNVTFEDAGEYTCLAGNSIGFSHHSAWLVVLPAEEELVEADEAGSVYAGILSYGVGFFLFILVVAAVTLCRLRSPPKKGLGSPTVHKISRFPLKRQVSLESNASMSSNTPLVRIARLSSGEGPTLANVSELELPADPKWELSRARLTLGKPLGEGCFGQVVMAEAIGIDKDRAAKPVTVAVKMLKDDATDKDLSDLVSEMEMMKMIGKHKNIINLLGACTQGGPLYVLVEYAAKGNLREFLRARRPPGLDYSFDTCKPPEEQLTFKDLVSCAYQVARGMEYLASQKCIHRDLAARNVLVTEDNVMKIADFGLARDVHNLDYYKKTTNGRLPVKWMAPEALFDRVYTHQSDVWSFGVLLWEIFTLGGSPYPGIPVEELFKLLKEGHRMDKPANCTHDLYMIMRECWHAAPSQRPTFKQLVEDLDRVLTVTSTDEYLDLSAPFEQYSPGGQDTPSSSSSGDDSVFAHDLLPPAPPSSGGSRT
Assay: Inhibition of FGFR3 (unknown origin) after 60 mins
MEASURED_PROPERTY: pIC50
In plain terms, pIC50 is the concentration in mol/L turned into minus its base-10 logarithm.

Specify reported pIC50 for the molecule shown: Cc1cc(Nc2ncc(Cl)c(Nc3ccccc3S(=O)(=O)C(C)C)n2)c(OC(C)C)cc1C1CCNCC1 [CERITINIB] 6.37
